# EXPERIMENTAL TARGET: T1, Human IL2Rγ extracellular domain expressed with a C-terminal myc-myc-hexahistidine tag (human)
# T1 construct: also called hIL-2Rg-MMH; hIL-2RG-MMH
# T1 chain: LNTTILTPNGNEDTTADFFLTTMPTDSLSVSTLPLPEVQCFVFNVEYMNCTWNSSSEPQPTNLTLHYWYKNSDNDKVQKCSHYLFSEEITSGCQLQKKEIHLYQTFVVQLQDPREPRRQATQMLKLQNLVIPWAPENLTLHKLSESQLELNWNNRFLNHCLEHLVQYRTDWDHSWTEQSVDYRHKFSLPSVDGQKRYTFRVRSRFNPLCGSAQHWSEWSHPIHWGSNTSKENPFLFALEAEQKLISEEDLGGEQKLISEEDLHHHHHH
# TEST METHOD NOTES: SPR Biacore 4000, mAb captured by anti-hFc, HBS-ET, 37C
QUANTITY KIND: 100 nM Ag Bound (RU)
API: value field is a number in RU; no unit string.

Item: H4H12886P (antibody, human IgG4 S228P, kappa, V domains shown, anti-IL2Rγ monoclonal antibody expressed with human IgG4 Fc) VH: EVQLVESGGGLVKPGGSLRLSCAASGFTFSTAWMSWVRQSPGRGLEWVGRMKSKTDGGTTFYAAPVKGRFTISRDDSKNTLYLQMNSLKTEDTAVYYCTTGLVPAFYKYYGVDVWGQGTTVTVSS VL: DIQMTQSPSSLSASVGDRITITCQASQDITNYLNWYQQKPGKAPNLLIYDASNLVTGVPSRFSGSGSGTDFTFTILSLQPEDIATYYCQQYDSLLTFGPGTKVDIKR | 100 nM Ag Bound: 52

Item: H4H12899P (antibody, human IgG4 S228P, kappa, V domains shown, anti-IL2Rγ monoclonal antibody expressed with human IgG4 Fc) VH: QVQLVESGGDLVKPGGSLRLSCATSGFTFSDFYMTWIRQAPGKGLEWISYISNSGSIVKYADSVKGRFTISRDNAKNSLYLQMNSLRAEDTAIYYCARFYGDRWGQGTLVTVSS VL: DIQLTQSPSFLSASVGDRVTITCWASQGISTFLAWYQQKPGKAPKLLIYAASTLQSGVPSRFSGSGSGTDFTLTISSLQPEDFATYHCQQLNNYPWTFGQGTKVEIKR | 100 nM Ag Bound: 36

Item: H4H12884P (antibody, human IgG4 S228P, kappa, V domains shown, anti-IL2Rγ monoclonal antibody expressed with human IgG4 Fc) VH: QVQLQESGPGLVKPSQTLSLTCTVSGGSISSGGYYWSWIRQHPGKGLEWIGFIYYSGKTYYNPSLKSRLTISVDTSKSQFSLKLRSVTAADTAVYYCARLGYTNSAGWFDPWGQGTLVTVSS VL: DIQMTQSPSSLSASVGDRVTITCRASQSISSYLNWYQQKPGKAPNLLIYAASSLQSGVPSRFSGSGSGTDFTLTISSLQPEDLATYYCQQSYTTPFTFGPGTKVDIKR | 100 nM Ag Bound: 62

Item: H4H12871P (antibody, human IgG4 S228P, kappa, V domains shown, anti-IL2Rγ monoclonal antibody expressed with human IgG4 Fc; also called REGN9434) VH: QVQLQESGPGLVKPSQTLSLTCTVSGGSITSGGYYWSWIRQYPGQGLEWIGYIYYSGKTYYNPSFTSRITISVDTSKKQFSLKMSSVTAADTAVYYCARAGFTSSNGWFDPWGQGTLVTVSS VL: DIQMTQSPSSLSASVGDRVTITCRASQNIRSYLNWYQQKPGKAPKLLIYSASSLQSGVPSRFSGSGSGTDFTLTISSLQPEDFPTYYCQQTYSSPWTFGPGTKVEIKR | 100 nM Ag Bound: 61
